meta.source: the OPERA property sets (Mansouri et al. 2018)

measured_metric: log10 Koc (L/kg)

{"compound": "CNC(=O)Oc1ccccc1OC(C)C", "result_value": 1.67}
{"compound": "c1ccc2sccc2c1", "result_value": 3.48}
{"compound": "COC(=O)C(C)Oc1ccc(Oc2ncc(C(F)(F)F)cc2Cl)cc1 (configuration not stated)", "result_value": 1.88}
{"compound": "OC(c1ccc(Cl)cc1)(c1ccc(Cl)cc1)C(Cl)(Cl)Cl", "result_value": 3.7}
{"compound": "COc1ccc(NC(=O)N(C)C)cc1", "result_value": 1.4}
{"compound": "N#Cc1c(Cl)cccc1Cl", "result_value": 2.5}
{"compound": "Nc1c(Cl)c(Cl)nc(C(=O)O)c1Cl", "result_value": 1.3}
{"compound": "c1ccc(-c2ccccn2)nc1", "result_value": 1.6}
{"compound": "COC(=O)c1ccccc1S(=O)(=O)NC(=O)Nc1nc(C)nc(OC)n1", "result_value": 1.54}
{"compound": "CCNc1nc(Cl)nc(NCC)n1", "result_value": 2.1}
{"compound": "O=C(O)CNCP(=O)(O)O", "result_value": 3.32}
{"compound": "CCCCCCC(=O)OCC", "result_value": 2.61}
{"compound": "O=C(O)COc1cc(Cl)c(Cl)cc1Cl", "result_value": 1.99}
{"compound": "ClCCl", "result_value": 1.44}
{"compound": "C=CCN(CC=C)C(=O)C(Cl)Cl", "result_value": 1.6}
{"compound": "COP(=O)(OC)O/C(C)=C/C(=O)OC(C)c1ccccc1 (configuration not stated)", "result_value": 2}
{"compound": "Clc1cccc(Cl)c1", "result_value": 2.58}
{"compound": "Oc1ccc2ccccc2c1/N=N/c1ccccc1", "result_value": 3.58}
{"compound": "Nc1nc(N)nc(NC2CC2)n1", "result_value": 2.3}
{"compound": "CC12CC1(C)C(=O)N(c1cc(Cl)cc(Cl)c1)C2=O (configuration not stated)", "result_value": 3.18}
{"compound": "c1ccc(-c2ccccc2)cc1", "result_value": 3.27}
{"compound": "Cc1cccc(OC(N)=O)c1", "result_value": 1.48}
{"compound": "Cc1cccc(N)c1", "result_value": 1.53}
{"compound": "Oc1ccccc1", "result_value": 1.43}
{"compound": "Cc1cccc2sc3nncn3c12", "result_value": 3.09}
{"compound": "O=C(O)c1cccc(Cl)n1", "result_value": 1.37}
{"compound": "OCCNCCO", "result_value": 0.6}
{"compound": "CS(=O)(=O)c1c(F)c(F)c(F)c(F)c1F", "result_value": 1.46}
{"compound": "CCOP(=O)(NC(C)C)Oc1ccc(S(C)(=O)=O)c(C)c1 (configuration not stated)", "result_value": 1.64}
{"compound": "COP(=O)(OC)OC(Br)C(Cl)(Cl)Br (configuration not stated)", "result_value": 2.26}
{"compound": "CCNc1nc(NC(C)(C)C)nc(SC)n1", "result_value": 2.85}
{"compound": "ClC(Cl)=C(c1ccc(Cl)cc1)c1ccccc1Cl", "result_value": 5.49}
{"compound": "CNC(=O)Oc1ccccc1C1OCCO1", "result_value": 1.6}
{"compound": "Oc1c(Cl)c(Cl)c(Cl)c(Cl)c1Cl", "result_value": 4.3}
{"compound": "Nc1cc(Cl)cc(Cl)c1", "result_value": 2.49}
{"compound": "CCOP(=S)(OCC)SCSC(C)(C)C", "result_value": 2.82}
{"compound": "O=C(O)C(Cl)(Cl)Cl", "result_value": 0.3}
{"compound": "CN1CCC[C@H]1c1cccnc1", "result_value": 2.01}
{"compound": "Cc1cc(Cl)ccc1OCCCC(=O)O", "result_value": 2.73}
{"compound": "COP(=S)(OC)SCN1C(=O)c2ccccc2C1=O", "result_value": 2.91}
{"compound": "COP(=S)(OC)Oc1ccc(Sc2ccc(OP(=S)(OC)OC)cc2)cc1", "result_value": 5}
{"compound": "CCCCc1cccc2[nH]nnc12", "result_value": 2.16}
{"compound": "Cc1cc(C)cc(C)c1", "result_value": 2.82}
{"compound": "CCOC(=O)c1cc([N+](=O)[O-])cc([N+](=O)[O-])c1", "result_value": 2.74}
{"compound": "CCCCCCCCCCCCO", "result_value": 3.52}
{"compound": "COc1nc(C)nc(NC(=O)NS(=O)(=O)c2ccccc2OCCCl)n1", "result_value": 2.02}
{"compound": "CC(=O)CC(c1ccccc1)c1c(O)c2ccccc2oc1=O (configuration not stated)", "result_value": 2.96}
{"compound": "CCNc1nc(NCC)nc(SC)n1", "result_value": 2.3}
{"compound": "Nc1ccc(Cl)cc1", "result_value": 1.96}
{"compound": "C=C(C)CN(CC)c1c([N+](=O)[O-])cc(C(F)(F)F)cc1[N+](=O)[O-]", "result_value": 3.6}
{"compound": "CCCN(CCC)C(=O)SCC", "result_value": 2.38}
{"compound": "C1COCCO1", "result_value": 1.23}
{"compound": "Cc1cc(NC(N)=O)ccc1F", "result_value": 1.75}
{"compound": "ClC(Cl)Br", "result_value": 1.78}
{"compound": "Cc1cc(C)nc(NC(=O)NS(=O)(=O)c2ccccc2C(=O)O)n1", "result_value": 1.8}
{"compound": "Nc1nc[nH]n1", "result_value": 1.25}
{"compound": "CCc1ccc2ccccc2c1", "result_value": 3.76}
{"compound": "Clc1cc(Cl)cc(Cl)c1", "result_value": 2.85}
{"compound": "CCCCCCCCO", "result_value": 1.56}
{"compound": "Cc1ccc(C)cc1", "result_value": 2.41}
{"compound": "[O-][N+](=Nc1ccccc1)c1ccccc1", "result_value": 3.5}
{"compound": "CS/C(C)=N/OC(=O)N(C)SN(C)C(=O)O/N=C(\\C)SC", "result_value": 2.54}
